Overview of recorded residual activity for various compounds
molecular target: RPS6KA6 KD1 KD2 (human); experiment: radiometric filter-binding kinase assay, Kinase HotSpot; settings: compound 0.5 µM; ATP 10 µM
Value expressed in %; do not type the unit.

Example entries and their recorded answers appear below.
[[record]]
smiles_structure = "COc1cc2c(N3CCN(C(=O)Nc4ccc(OC(C)C)cc4)CC3)ncnc2cc1OCCCN1CCCCC1"
unit_of_measurement = "%"
reported_value = 106

[[record]]
smiles_structure = "CCCCc1c(-c2ccc(O)cc2)[nH]c2nccnc12"
unit_of_measurement = "%"
reported_value = 72.7

[[record]]
smiles_structure = "c1ccc(-c2cnc(Nc3ccc(OCCN4CCCC4)cc3)s2)cc1"
unit_of_measurement = "%"
reported_value = 94.5

[[record]]
smiles_structure = "CCOc1cc2ncnc(Nc3cccc(Br)c3)c2cc1OCC"
unit_of_measurement = "%"
reported_value = 93.3

[[record]]
smiles_structure = "O=C1NC(=O)c2cc(Nc3ccc(F)cc3)c(Nc3ccc(F)cc3)cc21"
unit_of_measurement = "%"
reported_value = 97.4


Reported residual activity (RPS6KA6 KD1 KD2 (human)) for entry N#Cc1c(NC(=O)c2cccc3ccccc23)sc2c1CCCC2 is 101

###

target: CAMK4 (human); experiment: radiometric filter-binding kinase assay, Kinase HotSpot; conditions: compound 0.5 µM; ATP 10 µM
Overview of recorded residual activity for various molecules
Value expressed in %; do not type the unit.

Example entries and their recorded answers appear below.
[[record]]
smiles_structure = "N#CCCc1ccc2c(c1)-c1[nH]c3ccc([N+](=O)[O-])cc3c1CC(=O)N2"
measurement_target = "CAMK4 (human)"
reported_endpoint = "residual activity"
reported_value = 98.4

[[record]]
smiles_structure = "Cc1cc(Nc2nc(-c3ccccc3)nc3ccccc23)n[nH]1"
measurement_target = "CAMK4 (human)"
reported_endpoint = "residual activity"
reported_value = 94.1

[[record]]
smiles_structure = "CCOc1cc2ncnc(Nc3cccc(Br)c3)c2cc1OCC"
measurement_target = "CAMK4 (human)"
reported_endpoint = "residual activity"
reported_value = 98.7


For reference, reported residual activity for Cn1cc(/C=C2\C(=O)Nc3ccc(S(N)(=O)=O)cc32)c2ccccc21 stands at 96.4

###

Overview of recorded residual activity for various compounds
biological target: PLK3 (human); test: radiometric filter-binding kinase assay, Kinase HotSpot; conditions: compound 0.5 µM; ATP 10 µM
Value expressed in %; do not type the unit.

Example entries and their recorded answers appear below.
[[record]]
smiles_structure = "Cc1cc(Nc2nc(-c3ccccc3)nc3ccccc23)n[nH]1"
measurement_target = "PLK3 (human)"
unit_of_measurement = "%"
reported_value = 88.3

[[record]]
smiles_structure = "Cn1cc(/C=C2\\C(=O)Nc3ccc(S(N)(=O)=O)cc32)c2ccccc21"
measurement_target = "PLK3 (human)"
unit_of_measurement = "%"
reported_value = 99

[[record]]
smiles_structure = "O=C(c1ccccc1)c1ccc(N2CCOCC2)cc1O"
measurement_target = "PLK3 (human)"
unit_of_measurement = "%"
reported_value = 99.1


For reference, reported residual activity for N#C/C(=C1/Nc2ccccc2S1)c1ccnc(NCCc2cccnc2)n1 stands at 94.7

For reference, reported residual activity for N/C(=N\N=C/c1ccc(-c2cccc([N+](=O)[O-])c2)o1)N[N+](=O)[O-] stands at 96.8

For reference, reported residual activity for O=C(O)c1ccc2c3c1cccc3c(=O)n1c3ccccc3nc21 stands at 93.9

For reference, reported residual activity for O=c1c(-c2ccc(F)cc2)c(-c2ccncc2)[nH]n1-c1ccc(Cl)cc1 stands at 96.3

###

target: UniProt Q13627; assay: radiometric filter-binding kinase assay, Kinase HotSpot; conditions: compound 0.5 µM; ATP 10 µM
Lab note: cut-off is 90%. Strictly less in residual activity is t. Exactly 90% or more is f.

[[record]]
smiles_structure = "O=c1c2ccccc2[nH]c(=S)n1CCN1CCC(=C(c2ccc(F)cc2)c2ccc(F)cc2)CC1"
assigned_label = "f"

[[record]]
smiles_structure = "COc1cc2ncnc(Nc3ccc(O)c(Br)c3)c2cc1OC"
assigned_label = "f"


In the following, a different molecule is considered.
*Q* Regarding N#C/C(=C1/Nc2ccccc2S1)c1ccnc(NCCc2cccnc2)n1 , kindly confirm whether its residual activity is beneath 90%.
*A* t

###

target: FGFR1 (human); experiment: radiometric filter-binding kinase assay, Kinase HotSpot; conditions: compound 0.5 µM; ATP 10 µM
reported.endpoint: residual activity (%)
Value expressed in %; do not type the unit.

[[record]]
smiles_structure = "CCOc1cc2ncnc(Nc3cccc(Br)c3)c2cc1OCC"
reported_value = 90.9

[[record]]
smiles_structure = "O=c1[nH]c2ccccc2n1C1CCN(Cc2ccc(-c3nc4cc5[nH]cnc5cc4nc3-c3ccccc3)cc2)CC1"
reported_value = 102

[[record]]
smiles_structure = "O=C(c1ccccc1)c1ccc(N2CCOCC2)cc1O"
reported_value = 95.9

[[record]]
smiles_structure = "Cc1cc(Nc2nc(-c3ccccc3)nc3ccccc23)n[nH]1"
reported_value = 48.8

[[record]]
smiles_structure = "CCCCc1c(-c2ccc(O)cc2)[nH]c2nccnc12"
reported_value = 81.8


Now look at this entry.
For reference, reported residual activity for O=c1cc(N2CCOCC2)oc2c(-c3ccccc3)cccc12 stands at 96.6

###

biological target: SRPK3 (human) (UniProt Q9UPE1); assay: radiometric filter-binding kinase assay, Kinase HotSpot; conditions: compound 0.5 µM; ATP 10 µM
Sequence (Q9UPE1 whole entry, looked up): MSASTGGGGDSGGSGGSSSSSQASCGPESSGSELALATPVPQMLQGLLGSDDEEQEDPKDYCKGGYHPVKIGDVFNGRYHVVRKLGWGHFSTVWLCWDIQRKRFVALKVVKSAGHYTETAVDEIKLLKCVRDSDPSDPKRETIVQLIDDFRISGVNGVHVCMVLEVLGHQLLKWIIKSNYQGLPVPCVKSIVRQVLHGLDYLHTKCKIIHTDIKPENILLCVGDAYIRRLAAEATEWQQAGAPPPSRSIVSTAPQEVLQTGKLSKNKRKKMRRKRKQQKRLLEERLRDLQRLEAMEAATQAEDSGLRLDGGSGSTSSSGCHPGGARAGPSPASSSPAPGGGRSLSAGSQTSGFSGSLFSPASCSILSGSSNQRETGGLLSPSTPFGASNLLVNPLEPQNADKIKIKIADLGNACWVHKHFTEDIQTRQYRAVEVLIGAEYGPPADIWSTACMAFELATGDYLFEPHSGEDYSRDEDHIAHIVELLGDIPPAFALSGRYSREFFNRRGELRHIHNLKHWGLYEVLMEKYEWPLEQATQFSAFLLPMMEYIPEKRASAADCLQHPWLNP
Overview of recorded residual activity for various compounds
Value expressed in %; do not type the unit.

Example entries and their recorded answers appear below.
[[record]]
smiles_structure = "COc1cc2c(N3CCN(C(=O)Nc4ccc(OC(C)C)cc4)CC3)ncnc2cc1OCCCN1CCCCC1"
reported_endpoint = "residual activity"
unit_of_measurement = "%"
reported_value = 102

[[record]]
smiles_structure = "CCCCc1c(-c2ccc(O)cc2)[nH]c2nccnc12"
reported_endpoint = "residual activity"
unit_of_measurement = "%"
reported_value = 98.6

[[record]]
smiles_structure = "N#Cc1c(NC(=O)c2cccc3ccccc23)sc2c1CCCC2"
reported_endpoint = "residual activity"
unit_of_measurement = "%"
reported_value = 95.7

[[record]]
smiles_structure = "CCc1nc(-c2ccc(OC)cc2)[nH]c1-c1ccncc1"
reported_endpoint = "residual activity"
unit_of_measurement = "%"
reported_value = 102

[[record]]
smiles_structure = "O=c1c2ccccc2[nH]c(=S)n1CCN1CCC(=C(c2ccc(F)cc2)c2ccc(F)cc2)CC1"
reported_endpoint = "residual activity"
unit_of_measurement = "%"
reported_value = 102


For reference, reported residual activity for COc1cccc(-c2cc(=O)c3ccccc3o2)c1N stands at 91

For reference, reported residual activity for O=c1c(-c2ccc(F)cc2)c(-c2ccncc2)[nH]n1-c1ccc(Cl)cc1 stands at 92.2

For reference, reported residual activity for O=C1NC(=O)c2cc(Nc3ccc(F)cc3)c(Nc3ccc(F)cc3)cc21 stands at 98

For reference, reported residual activity for N/C(=N\N=C/c1ccc(-c2cccc([N+](=O)[O-])c2)o1)N[N+](=O)[O-] stands at 100

For reference, reported residual activity for Cn1cc(/C=C2\C(=O)Nc3ccc(S(N)(=O)=O)cc32)c2ccccc21 stands at 88.5

For reference, reported residual activity for Cc1cc(Nc2nc(-c3ccccc3)nc3ccccc23)n[nH]1 stands at 61.5

For reference, reported residual activity for O=S(=O)(NCCNC/C=C/c1ccc(Br)cc1)c1cccc2cnccc12 stands at 98

For reference, reported residual activity for COc1cc2ncnc(Nc3ccc(O)c(Br)c3)c2cc1OC stands at 92.4

For reference, reported residual activity for O=C(O)c1ccc2c3c1cccc3c(=O)n1c3ccccc3nc21 stands at 82.8

For reference, reported residual activity for c1ccc(-c2cnc(Nc3ccc(OCCN4CCCC4)cc3)s2)cc1 stands at 98.2

###

target: DYRK4 (human) (UniProt Q9NR20); assay: radiometric filter-binding kinase assay, Kinase HotSpot; settings: compound 0.5 µM; ATP 10 µM
Sequence (Q9NR20 whole entry, looked up): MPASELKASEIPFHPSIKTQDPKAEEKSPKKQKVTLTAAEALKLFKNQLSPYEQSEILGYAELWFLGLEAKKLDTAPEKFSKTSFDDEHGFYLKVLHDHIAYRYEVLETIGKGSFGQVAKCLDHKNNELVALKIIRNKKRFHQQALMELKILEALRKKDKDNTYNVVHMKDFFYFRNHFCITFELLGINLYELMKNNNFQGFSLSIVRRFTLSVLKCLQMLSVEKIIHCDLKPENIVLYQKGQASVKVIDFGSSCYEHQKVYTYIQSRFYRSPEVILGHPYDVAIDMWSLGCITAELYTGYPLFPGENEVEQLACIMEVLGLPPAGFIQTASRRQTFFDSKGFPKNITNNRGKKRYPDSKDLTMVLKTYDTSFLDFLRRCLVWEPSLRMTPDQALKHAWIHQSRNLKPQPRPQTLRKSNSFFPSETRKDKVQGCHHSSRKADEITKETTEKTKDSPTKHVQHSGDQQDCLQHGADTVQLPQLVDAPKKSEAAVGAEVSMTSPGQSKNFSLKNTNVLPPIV
reported.endpoint: residual activity (%)
Value expressed in %; do not type the unit.

[[record]]
smiles_structure = "O=c1c(-c2ccc(F)cc2)c(-c2ccncc2)[nH]n1-c1ccc(Cl)cc1"
reported_value = 81.5


For reference, reported residual activity for O=c1cc(N2CCOCC2)oc2c(-c3ccccc3)cccc12 stands at 91.9

For reference, reported residual activity for N/C(=N\N=C/c1ccc(-c2cccc([N+](=O)[O-])c2)o1)N[N+](=O)[O-] stands at 92.7

For reference, reported residual activity for N#Cc1c(NC(=O)c2cccc3ccccc23)sc2c1CCCC2 stands at 98.1

###

target: UniProt Q96PY6; test: radiometric filter-binding kinase assay, Kinase HotSpot; conditions: compound 0.5 µM; ATP 10 µM
Sequence (Q96PY6 whole entry, looked up): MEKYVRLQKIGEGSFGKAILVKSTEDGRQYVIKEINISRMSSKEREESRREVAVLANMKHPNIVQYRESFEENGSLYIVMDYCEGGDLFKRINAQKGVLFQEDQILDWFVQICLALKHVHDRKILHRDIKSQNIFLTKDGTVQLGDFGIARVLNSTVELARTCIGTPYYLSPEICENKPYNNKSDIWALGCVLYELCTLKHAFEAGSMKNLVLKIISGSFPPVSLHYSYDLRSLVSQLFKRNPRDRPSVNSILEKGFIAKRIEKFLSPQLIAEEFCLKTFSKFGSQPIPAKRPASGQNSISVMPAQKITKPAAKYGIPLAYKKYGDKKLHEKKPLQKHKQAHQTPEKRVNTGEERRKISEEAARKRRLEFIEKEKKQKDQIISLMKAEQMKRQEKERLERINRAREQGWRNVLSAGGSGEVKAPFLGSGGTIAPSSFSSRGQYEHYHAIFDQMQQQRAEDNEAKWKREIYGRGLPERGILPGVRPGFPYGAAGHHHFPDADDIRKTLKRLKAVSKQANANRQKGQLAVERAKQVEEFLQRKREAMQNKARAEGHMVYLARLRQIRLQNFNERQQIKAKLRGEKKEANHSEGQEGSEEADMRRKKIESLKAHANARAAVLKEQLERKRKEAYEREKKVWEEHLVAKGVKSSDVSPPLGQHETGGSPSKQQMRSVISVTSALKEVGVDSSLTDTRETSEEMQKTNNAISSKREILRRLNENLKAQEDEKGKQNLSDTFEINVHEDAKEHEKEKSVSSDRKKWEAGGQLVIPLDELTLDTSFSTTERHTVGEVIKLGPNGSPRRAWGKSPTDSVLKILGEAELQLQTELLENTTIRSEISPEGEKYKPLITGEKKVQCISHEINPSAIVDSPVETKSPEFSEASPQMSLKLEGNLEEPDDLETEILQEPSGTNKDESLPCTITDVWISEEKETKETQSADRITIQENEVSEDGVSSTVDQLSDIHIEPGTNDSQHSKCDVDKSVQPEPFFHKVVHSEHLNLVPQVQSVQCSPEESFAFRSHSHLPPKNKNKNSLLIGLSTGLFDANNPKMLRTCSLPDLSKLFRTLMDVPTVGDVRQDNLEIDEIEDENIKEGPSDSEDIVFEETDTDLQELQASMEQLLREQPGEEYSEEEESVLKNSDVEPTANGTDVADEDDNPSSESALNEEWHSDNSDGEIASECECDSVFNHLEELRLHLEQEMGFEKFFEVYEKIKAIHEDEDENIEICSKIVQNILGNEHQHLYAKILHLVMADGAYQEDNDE
reported.endpoint: residual activity (%)
Value expressed in %; do not type the unit.

Example entries and their recorded answers appear below.
[[record]]
smiles_structure = "CN[C@@H]1C[C@H]2O[C@@](C)([C@@H]1OC)n1c3ccccc3c3c4c(c5c6ccccc6n2c5c31)C(=O)NC4"
reported_value = 3.99

[[record]]
smiles_structure = "c1ccc(-c2cnc(Nc3ccc(OCCN4CCCC4)cc3)s2)cc1"
reported_value = 94.2

[[record]]
smiles_structure = "O=c1c(-c2ccc(F)cc2)c(-c2ccncc2)[nH]n1-c1ccc(Cl)cc1"
reported_value = 78.7


Now look at this entry.
Reported residual activity (UniProt Q96PY6) for entry O=C1NC(=O)c2c1c1c3ccccc3[nH]c1c1[nH]c3cc(Br)ccc3c21 is 89.1
